From: the NIST ThermoML archive (doi:10.1021/je100377k)

Conditions: 283.15 K; 101.33 kPa; Liquid
measurement.label: mass density (kg/m3)
Give bare numbers, in kg/m3.

compound=CCCC[n+]1ccc(C)cc1.O=S(=O)([N-]S(=O)(=O)C(F)(F)F)C(F)(F)F measured_number=1426.3
compound="CCCC[n+]1ccccc1.O=S(=O)([N-]S(=O)(=O)C(F)(F)F)C(F)(F)F [1-butylpyridinium bis[(trifluoromethyl)sulfonyl]imide]" measured_number=1462.8
compound="CCCCCCCC[n+]1cccc(C)c1 [1-octyl-3-methylpyridinium]" measured_number=1342.7
compound=CCCC[n+]1cccc(C)c1.O=S(=O)([N-]S(=O)(=O)C(F)(F)F)C(F)(F)F measured_number=1426.6
compound="CCCCCC[n+]1ccccc1.O=S(=O)([N-]S(=O)(=O)C(F)(F)F)C(F)(F)F [1-hexylpyridinium bis(trifluromethylsulfonyl)imide]" measured_number=1407.8

Next compound, please.
Determine its reported mass density: CCC[n+]1cccc(C)c1.O=S(=O)([N-]S(=O)(=O)C(F)(F)F)C(F)(F)F 1462.3
